Hello, the source for this data is patent EP3442966B1, in case you need it.

biological target: human Orexin 1 receptor (Homo sapiens, UniProt O43613); construct: stably expressing the full-length human Orexin 1 receptor; expressed in transfected cells; host or cells: CHO-K1 (CHO-K1/hOx1), co-expressing the aequorin photoprotein; test: Assay A: in vitro testing of OX1R potency, OX1R IP1 (HTRF) in CHO-K1/hOx1 cells; format: cell-based; conditions: selectivity ratio; OX1R Kb at 50 nM Orexin A, OX2R Kb at 0.5 nM Orexin A
Sequence (O43613 whole entry): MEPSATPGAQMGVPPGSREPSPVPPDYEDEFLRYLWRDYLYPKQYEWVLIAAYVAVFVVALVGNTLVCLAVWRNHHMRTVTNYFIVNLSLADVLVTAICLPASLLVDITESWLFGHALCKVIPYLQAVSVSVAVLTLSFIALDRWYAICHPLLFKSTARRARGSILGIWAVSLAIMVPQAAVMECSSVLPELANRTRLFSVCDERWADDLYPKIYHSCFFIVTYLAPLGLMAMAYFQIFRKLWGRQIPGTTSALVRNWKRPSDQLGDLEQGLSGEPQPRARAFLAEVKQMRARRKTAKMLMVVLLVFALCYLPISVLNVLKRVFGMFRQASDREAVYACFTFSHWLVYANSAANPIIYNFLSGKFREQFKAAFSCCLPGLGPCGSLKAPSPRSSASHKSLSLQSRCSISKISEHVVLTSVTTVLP
Assign 1.0 to entries whose OX2R Kb / OX1R Kb meets or exceeds 500; assign 0.0 to the rest.

Task item: Exam item: decide whether the reported OX2R Kb / OX1R Kb for CCN(C(=O)c1cccc(F)c1-c1ncccn1)[C@@H](C)CNc1ccc(C(F)(F)F)cn1 is at least 500.
Reply: 0.0

Task item: Same thing, different compound: CCN(C(=O)c1cccc(F)c1-n1nccn1)[C@@H](C)CNc1ccc(C(F)(F)F)cn1
Reply: 1.0

Task item: Same thing, different compound: CCN(C(=O)c1nc(C)sc1-c1ccc(F)cc1)[C@@H](C)CNc1ncc(C(F)(F)F)cn1
Reply: 0.0

Task item: Same thing, different compound: CCN(C(=O)c1ccc(OC)cc1-n1nccn1)[C@@H](C)CNc1ncc(C(F)(F)F)cn1
Reply: 1.0

Task item: Same thing, different compound: CCN(C(=O)c1cccc(F)c1-n1nccn1)[C@@H](C)CNc1ncc(C(F)(F)F)cc1F
Reply: 1.0

Task item: Same thing, different compound: CCN(C(=O)c1cc(OC)ccc1-n1nccn1)[C@@H](C)CNc1ncc(C(F)(F)F)cn1
Reply: 1.0

Task item: Same thing, different compound: CCN(C(=O)c1nccc(C(F)(F)F)c1-c1ccn(C)n1)[C@@H](C)COc1ccc(C(F)(F)F)cn1
Reply: 0.0

Task item: Same thing, different compound: CCN(C(=O)c1cccc(F)c1-n1nccn1)[C@@H](C)CNc1ccc(F)c(C(F)(F)F)n1
Reply: 0.0

Task item: Same thing, different compound: CCN(C(=O)c1cc(C)ccc1-n1nccn1)[C@@H](C)CNc1ccc(Cl)cn1
Reply: 0.0

Task item: Same thing, different compound: CCN(C(=O)c1ccc(C)cc1-n1nccn1)[C@@H](C)CNc1ncc(C(F)(F)F)cn1
Reply: 1.0

Task item: Same thing, different compound: CCN(C(=O)c1ccc(Cl)cc1-n1nccn1)[C@@H](C)CNc1ncc(C(F)(F)F)cn1
Reply: 1.0

Task item: Same thing, different compound: CCN(C(=O)c1ccc(C)c(C)c1-n1nccn1)[C@@H](C)CNc1ccc(Cl)cn1
Reply: 1.0

Task item: Same thing, different compound: CCN(C(=O)c1cccc(F)c1-c1ncccn1)[C@@H](C)CNc1ccc(F)c(C(F)(F)F)n1
Reply: 0.0

Task item: Same thing, different compound: CCN(C(=O)c1cccc(F)c1-n1nccn1)[C@@H](C)CNc1ccc(Cl)cn1
Reply: 0.0

Task item: Same thing, different compound: CCN(C(=O)c1nc(C)sc1-c1ccccc1)[C@@H](C)CNc1ncc(C(F)(F)F)cn1
Reply: 1.0

Task item: Same thing, different compound: CCN(C(=O)c1cc(C)ccc1-n1nccn1)[C@@H](C)CNc1ncc(C(F)(F)F)cn1
Reply: 0.0

Task item: Same thing, different compound: CCN(C(=O)c1cc(F)ccc1-c1ncccn1)[C@@H](C)CNc1ncc(C(F)(F)F)cc1F
Reply: 0.0

Task item: Same thing, different compound: CCN(C(=O)c1c(-n2nccn2)ccc(C)c1F)[C@@H](C)CNc1ncc(C(F)(F)F)cn1
Reply: 1.0
